tested on: MS2 coat protein; assay: apparent KD of MS2 coat protein; higher = weaker reporter binding; details: Eterna round: R107; input ligand: none
Give true (1) when the value for apparent KD of MS2 coat protein is at least 90 nM. Give false (0) when it is less.

Query: Threshold query (apparent KD of MS2 coat protein >= 90 nM) on GGGCUCGGAGUGCGGCGUGUUCCGCUCCGUCGAGGACCGGUACGGCCGCCACUCGACAUGAGGAUCACCCAUGUCCGAGCGCGCG [#1 Exclusion - Tryptophan A Attempt #6 (HarryS)]
Reply: false (0)

Query: Threshold query (apparent KD of MS2 coat protein >= 90 nM) on UGUAUGGACUGAAGGAGCGGAAAAUAAAUCUGAGGAUCACCCAGGUAAUAGGCGAAAGCCAUCCAGGUAGGUCGCAGUCCAUACU
Reply: false (0)

Query: Threshold query (apparent KD of MS2 coat protein >= 90 nM) on AGGCUUCGCAUAGGAAAACUAUGUGAAGCCCGAGGACCGGUACGGCCGCCACUCGUCCUCAACAUGAGGAUCACCCAUGUAAUAA [Mat - Exclusion - Trytophan A - D1]
Reply: false (0)

Query: Threshold query (apparent KD of MS2 coat protein >= 90 nM) on GUAGGUCAGUGAUCCCGACCUACACUGGAAGGAGCGAGCGAAAGCUCAGGUAGGUCGCCAGAAACAUGAGGAUCACCCAUGUAAU [(A)''-(M)'-(A)'-(Arg1)-(Arg2)-(M1)-(M2)_Design1]
Reply: true (1)

Query: Threshold query (apparent KD of MS2 coat protein >= 90 nM) on UAUCCACAUGAGGAUCACCCAUGUAAGGAAGGAGCGGUGAAUGCACCAGGUAGGUCGCCUUGCUGAGGACAGCCGGUGGAUUCGU [Exclusion - Arginine A (Freestyle 24)]
Reply: false (0)

###

Please go through the items and note down their apparent KD of MS2 coat protein.
test system: MS2 coat protein; experiment: apparent KD of MS2 coat protein, switch ON state; designed switch direction (-1 OFF switch, 1 ON switch): 1; higher = weaker reporter binding; details: FMN input: 0 or 200 uM; Eterna round: R93 (includes R88 designs)
Unit nM implied. Number only.

Kindly note: MS2 coat protein, GAAAUACAUGAGGAUCACCCAUGUUAGGUGGAUCAAGGAUAUCAAGGUAAAUAAAAACCUUGAGAAGGUGAAUAAA [JR_SS001_Sub204] , apparent KD of MS2 coat protein value reported: 87.8

Kindly note: MS2 coat protein, AACAGGAAGAGAGAGGAUAUCCAAAGGAAAACAUGAGGAUCACCCAUGUAAAAGGUAGGAAAUUGGGAGAAGGCUCAAGAGAGAG [salish99-ss2-089] , apparent KD of MS2 coat protein value reported: 24.8

Kindly note: MS2 coat protein, GAAAUACAUGAGGAUCACCCAUGUUAGGUGGGUCAAGGAUAUUGAUAUAAAUAAAAAACUCGAGAAGGUGAAUAAA [JR_SS001_Sub201] , apparent KD of MS2 coat protein value reported: 229

Kindly note: MS2 coat protein, AUAAUACAUGAGGAUCACCCAUGUCAAGGCUAUCAAGGAUAUAGACAACGUAGCGGUUGACUAGAAGGUGAGAAAU [Onxeanis] , apparent KD of MS2 coat protein value reported: 124

Kindly note: MS2 coat protein, AAAAAACAUGAGGAUCACCCAUGUCUUCGGACGUGAGGAUAUGUACAGACUUCGGUCUGUACAGAAGGCACGAAAA [SS1 - 1035] , apparent KD of MS2 coat protein value reported: 22.7

Kindly note: MS2 coat protein, AAAAAACAUGAGGAUCACCCAUGUCCUCACGUGCGAGGAUAUGGAUGGAAACCAUACUGUCCAGAAGGCGCAUGUA [EteRNA is fun!] , apparent KD of MS2 coat protein value reported: 230

Kindly note: MS2 coat protein, CGGCUAAACGGGCAGGAUAUGUUCACUAGAACAUGAGGAUCACCCAUGUGAAACUGGCGAUAAUCGCAGAAGGGCCCGUGCACGA [Atensoin] , apparent KD of MS2 coat protein value reported: 17.6

Kindly note: MS2 coat protein, AAUAACAAAAGAAAGGAUAUAUAAACAGGAACAUGAGGAUCACCCAUGUGCCGCCAAGGCGGAUAAUAGAAGGUUCACAUGCAUA [Default title] , apparent KD of MS2 coat protein value reported: 47

Kindly note: MS2 coat protein, AAAAACACAGUGCAGGAUAUGGUAAUAGUCACAUGAGGAUCACCCAUGUUCUUUUAUAAGAACGAUCAGAAGGGCGGUGAAAAAA [Mat - Same state - Malcolm Mod - D114] , apparent KD of MS2 coat protein value reported: 241

Kindly note: MS2 coat protein, AAAAAACAUGAGGAUCACCCAUGUCGAAAGACGUGAGGAUAUGUACAGACUUCGGUCUGUACAGAAGGCACAAAAA [SS1 - 1032] , apparent KD of MS2 coat protein value reported: 24.6

Kindly note: MS2 coat protein, AGAAAUAAAAGAGAGGAUAUCCAAAAGAAAACAUGAGGAUCACCCAUGUAAAAGAAAAUAAAGUGGGAGAAGGCUCAAAAUAAGA [Jieux modified] , apparent KD of MS2 coat protein value reported: 16.4

Kindly note: MS2 coat protein, AAAAGACAUGAGGAUCACCCAUGUGAAAACGUAGGAGGAUAUGUCUGGAAAACAGACUGGACAGAAGGCCUGUGUC [SS1 - 33] , apparent KD of MS2 coat protein value reported: 24.4

Kindly note: MS2 coat protein, GAAAAACAUGAGGAUCACCCAUGUAAUACAACAUCAGGAUAUUGAUUUUACUAUGUAUUGCAAGAAGGGAUGAAAG [Mat - Same State 1 - Hyphema mod - D100] , apparent KD of MS2 coat protein value reported: 57.2

###

tested on: K4 kissing-loop RNA reporter; test: apparent KD of K4 kissing-loop reporter; higher = weaker reporter binding; conditions: Eterna round: R107; input ligand: none;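 also: bound reporter read as fluorescence of individual clusters on recovered sequencing chips by microscopy, with normalized cluster intensities fitted with a binding model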
Give Y when the value for apparent KD of K4 kissing-loop reporter is at least 200 nM. Give N when it is less.

Query: Threshold query (apparent KD of K4 kissing-loop reporter >= 200 nM) on GGGAGUAUUGCGGCCGCCACUGAGGAAGAAGAAGGCCAUAGUGAUGUUAUGGAGGAAAGGAAGAACAGGACCGGGCAGUAGAUUU [#22 K4 Tryptophan B Same State]
Reply: N

Query: Threshold query (apparent KD of K4 kissing-loop reporter >= 200 nM) on CAUUCGAAAUGCAGUGAUGUUGCAACUGAUACCAGUAUCGAAAGAUACCCUUGGCAGCGGAAAACCGCUACGUAUUUUUUGAAUG [Ex Theophylline A K4 25]
Reply: Y

Query: Threshold query (apparent KD of K4 kissing-loop reporter >= 200 nM) on UGGAUAUAGUGAUGUUAUAUAGAGAUGGAUACCAGCGAAGAGAAUUGCCCUUGGCAGCCGAAAGAAGUAUCAUUAGAGAAGAAUG [ExTheophyl.Ah]
Reply: Y

Query: Threshold query (apparent KD of K4 kissing-loop reporter >= 200 nM) on GCGCGUCAUGUCAGCGGUGACUACGUCGAUACCAGCAGGGAAACCUGCCCUUGGCAGCGACGCGCUGGAGUGAUGUUCCGACGGC [#2 Exclusion - Theophylline A Attempt #7 (HarryS)]
Reply: N

Query: Threshold query (apparent KD of K4 kissing-loop reporter >= 200 nM) on AGAGAUAUAUGAGGAUAUGAGAUAGUUAAUGAGUGAGUUUUAGUGUUGUUUGGUUAGUGAUGUUAUUUAGAAGGCGUGAGUGAUG [grrfullin]
Reply: N

Query: Threshold query (apparent KD of K4 kissing-loop reporter >= 200 nM) on ACUAUCCGUAUAUAUAAGAUAGCUGGAGAUACCAGUUCAAUCUUGAACCCUUGGCAGCUCACCACCAAGUGAUGUUUGGCACGAC [theeternabot_sameState_KL_Theo_A_42]
Reply: Y

Query: Threshold query (apparent KD of K4 kissing-loop reporter >= 200 nM) on AGAACUGUCUGGGAUACCAGCCGAGGAGUGAUGUUCCGGCUCGACGAAACGUCGAGCUACGGCCCUUGGCAGCUCAGACAGUUCA [#22 K4 Theophylline B Same State]
Reply: Y

Query: Threshold query (apparent KD of K4 kissing-loop reporter >= 200 nM) on AUUUAAUUAACUGAUACCAGACUUUUUGUUUUGAUAAUUACUAGUGAUGUUAGUGUUUCUGUCCCUUGGCAGCAGAAUCUACUUA [JR_ExcTheophyB_Sub018]
Reply: N

Query: Threshold query (apparent KD of K4 kissing-loop reporter >= 200 nM) on UUUCCAGUGAUGUUGGAGAAAACCGAGGAAGGAGCGGACUCUUGUCCAGGUAGGUCGCCUCGUCUCCCAUUGGCAGAGCGGACCC [Enlaonbian]
Reply: Y

Query: Threshold query (apparent KD of K4 kissing-loop reporter >= 200 nM) on AAAUGACAAGUAAUAAAGAAAAGCGGCGAUACCAGUAAGAACGUAUACCCUUGGCAGCGCAUAUUAGAGUGAUGUUCUAAUCCGA [theeternabot_sameState_KL_Theo_A_25]
Reply: N

Query: Threshold query (apparent KD of K4 kissing-loop reporter >= 200 nM) on GACAUAUUCCAGGAUACCAGUGAUCCGCCGCAGCCGAAGACUAGUGAUGUUAGUUUCUGUCACCCUUGGCAGCCUCGAGUCUAAU [theeternabot_sameState_KL_Theo_B_15]
Reply: Y

Query: Threshold query (apparent KD of K4 kissing-loop reporter >= 200 nM) on AAAAUAAUCCAGUGAUGUUGGUAUACAGAUACCAGCGACGAAAGUCGCCCUUGGCAGCUGUGGACGUACAAAAUAAGUACGUCCU
Reply: Y

Query: Threshold query (apparent KD of K4 kissing-loop reporter >= 200 nM) on AAAAUAAAUAGCAGUCACGGAGUGAUGUUCCGAGGACCGGUACGGCCGCCACUCGACCAGACAAAGUCUGGAGGCGGAGACUGCA [#SwitchBubble 20 #K4Early]
Reply: N

Query: Threshold query (apparent KD of K4 kissing-loop reporter >= 200 nM) on CGCUGGAGUGAUGUUCCAGCUUCUACGGAUACCAGCCACGCCAGCGGCCCUUGGCAGCCGCAAAUUGCAGUGAUGUUGUGAUGCC [Same State Theophylline A GF 4]
Reply: Y

Query: Threshold query (apparent KD of K4 kissing-loop reporter >= 200 nM) on UGUCAUUGGUCGGCCGCCACUUUGUAUGGAGUGAUGUUUUGUAGAUUGUGUUGAAAGGUGUGGUGAAGGACCGGGACCGAUGACU [FiskerMod 24 - Jieux - Same State - Tryptophan B]
Reply: Y

Query: Threshold query (apparent KD of K4 kissing-loop reporter >= 200 nM) on UGAUUGGCGAAAGUAGUGAUGUUACGAAUAUAGGAUAUUAGAGGAAUAAGAAGGAUAAGGGAGAAAUAGGUAAAUUGUUGGUUGG [whbob_SS_FMNA__2th170]
Reply: N

Query: Threshold query (apparent KD of K4 kissing-loop reporter >= 200 nM) on AGCUGUAGCAGAAGGAGCGACAGUUAUUCUGAUAGUACUCUGAGUGAUGUUCAGAACGACUGUCAGGUAGGUCGCUGUUACAGCU [Arg B Ex t8b]
Reply: N

Query: Threshold query (apparent KD of K4 kissing-loop reporter >= 200 nM) on AGGAUCCGUCGACAAAAGUCGACAAUAACCAAGGAUAUGACGAAAGUCAGAAGGUGGUCUUAUGACCAGUGAUGUUGGUGGAUCC [FmnA 15 #SwitchBubble #K4Late]
Reply: Y

Query: Threshold query (apparent KD of K4 kissing-loop reporter >= 200 nM) on CGUUUAUAGCAGGAUACCAGUACCCAUAAAGUACGUUAAUAGUAGAGUGAUGUUCUAAAGUACCCUUGGCAGCUUCGAGUGAGUG [ExTheophylB.R]
Reply: N

Query: Threshold query (apparent KD of K4 kissing-loop reporter >= 200 nM) on GUCUCGAGUGAUGUUCGGGUCGUUUGGGAAGGAGCGCCCGGAAGGGCAGGUAGGUCGCCCGGACCGCGCGGGCAACCGCGCGGCC [#2 Same State - Arginine A Attempt #12 (HarryS)]
Reply: Y

Ref: the supplement of paper PMC9170038
